molecular target: UniProt P35557; assay: In-vitro glucokinase (GK) activation assay (coupled with glucose-6-phosphate dehydrogenase, absorbance at 340); conditions: GK enzyme 0.2 units, glucose 2.5 mM, ATP 1 mM
Here, each record is paired with measured EC50 data.
Note: unit nM is implicit; provide only the numeric part.

1. Cc1nnc(-c2ccc(Oc3cc(O[C@@H]4CCN(C)C4=O)cc(C(=O)Nc4nccs4)c3)cc2)o1 :: 356
2. Cc1nnc(-c2ccc(Oc3cc(OC4CCN(C)C4=O)cc(C(=O)Nc4nccs4)c3)cc2)o1 (stereo not shown) :: 21
3. CCOC(=O)Cc1csc(NC(=O)c2cc(Oc3ccc(-c4nnc(C)o4)cc3)cc(OC3CCN(C)C3=O)c2)n1 (stereo not shown) :: 196

Record Cc1csc(NC(=O)c2cc(Oc3ccc(-c4nnc(C)o4)cc3)cc(OC3CCN(C)C3=O)c2)n1 (stereo not shown) has UniProt P35557 EC50 equal to 74

Record Cc1nnc(-c2ccc(Oc3cc(OC4CCN(C)C4=O)cc(C(=O)Nc4ncc(C)s4)c3)cc2)o1 (stereo not shown) has UniProt P35557 EC50 equal to 40

Record Cc1nnc(-c2ccc(Oc3cc(O[C@H]4CCN(C)C4=O)cc(C(=O)Nc4nccs4)c3)cc2)o1 has UniProt P35557 EC50 equal to 34

Record Cc1nnc(-c2ccc(Oc3cc(OC4CCN(C)C4=O)cc(C(=O)Nc4nc(CC(=O)O)cs4)c3)cc2)o1 (stereo not shown) has UniProt P35557 EC50 equal to 320

----------
target: glucokinase (GK) enzyme (Homo sapiens, UniProt P35557); assay: In-vitro glucokinase (GK) activation assay (coupled with glucose-6-phosphate dehydrogenase, absorbance at 340); assay type: biochemical; details: 5 uM compound; glucose 2.5 mM; read-out: % of GK activity wrt DMSO
Here, each record is paired with measured activity at 5 µM data.
Note: unit % is implicit; provide only the numeric part.

Check out these entries, answers already filled in.
1. CCOC(=O)Cc1csc(NC(=O)c2cc(Oc3ccc(-c4nnc(C)o4)cc3)cc(OC3CCN(C)C3=O)c2)n1 (stereo not shown) :: 312
2. Cc1csc(NC(=O)c2cc(Oc3ccc(-c4nnc(C)o4)cc3)cc(OC3CCN(C4CC4)C3=O)c2)n1 (stereo not shown) :: 305
3. CC(C)Cc1nnc(-c2ccc(Oc3cc(OC4CCN(C)C4=O)cc(C(=O)Nc4nccs4)c3)cc2)o1 (stereo not shown) :: 336
4. CN1CCC(Oc2cc(Oc3ccc(-c4nnc(C5CC5)o4)cc3)cc(C(=O)Nc3nccs3)c2)C1=O (stereo not shown) :: 366
5. Cc1nnc(-c2ccc(Oc3cc(OC4CCN(C)C4=O)cc(C(=O)Nc4nnc(C5CC5)s4)c3)cc2)o1 (stereo not shown) :: 218

Measured activity at 5 µM of Cc1nc(-c2ccc(Oc3cc(OC4CCN(C)C4=O)cc(C(=O)Nc4nccs4)c3)cc2)no1 (stereo not shown) : 356

Measured activity at 5 µM of Cc1nnc(-c2ccc(Oc3cc(OC4CCN(C)C4=O)cc(C(=O)NC4=NCCS4)c3)cc2)o1 (stereo not shown) : 190

----------
Here, each record is paired with measured activity at 1 µM data.
Target: glucokinase (GK) enzyme (Homo sapiens)
Sequence (P35557 1-465): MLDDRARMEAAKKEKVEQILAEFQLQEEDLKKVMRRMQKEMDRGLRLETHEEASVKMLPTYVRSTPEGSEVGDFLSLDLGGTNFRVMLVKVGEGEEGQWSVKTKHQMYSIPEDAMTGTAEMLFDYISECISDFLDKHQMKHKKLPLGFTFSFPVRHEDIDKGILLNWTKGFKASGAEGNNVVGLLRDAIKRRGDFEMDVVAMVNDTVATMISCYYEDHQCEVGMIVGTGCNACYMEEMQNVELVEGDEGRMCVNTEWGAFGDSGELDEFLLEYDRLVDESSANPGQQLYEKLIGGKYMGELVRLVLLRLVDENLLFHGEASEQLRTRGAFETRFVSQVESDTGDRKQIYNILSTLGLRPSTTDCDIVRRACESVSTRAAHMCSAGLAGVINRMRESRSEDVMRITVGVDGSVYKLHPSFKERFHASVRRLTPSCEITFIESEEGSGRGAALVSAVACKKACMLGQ
Assay: In-vitro glucokinase (GK) activation assay (coupled with glucose-6-phosphate dehydrogenase, absorbance at 340)
Assay type: biochemical
Conditions: 1 uM compound; glucose 2.5 mM; read-out: % of GK activity wrt DMSO
Note: unit % is implicit; provide only the numeric part.

Check out these entries, answers already filled in.
1. Cc1nnc(-c2ccc(Oc3cc(O[C@H]4CCN(C)C4=O)cc(C(=O)Nc4nccs4)c3)cc2)o1 :: 238
2. Cc1nnc(-c2ccc(Oc3cc(OC4CCN(C)C4=O)cc(C(=O)Nc4ncc(C(=O)O)s4)c3)cc2)o1 (stereo not shown) :: 126
3. Cc1nc(-c2ccc(Oc3cc(OC4CCN(C)C4=O)cc(C(=O)Nc4nccs4)c3)cc2)no1 (stereo not shown) :: 314
4. CCOC(=O)c1csc(NC(=O)c2cc(Oc3ccc(-c4nnc(C)o4)cc3)cc(OC3CCN(C)C3=O)c2)n1 (stereo not shown) :: 205
5. Cc1csc(NC(=O)c2cc(Oc3ccc(-c4noc(C)n4)cc3)cc(OC3CCN(C)C3=O)c2)n1 (stereo not shown) :: 283
6. Cc1nnc(-c2ccc(Oc3cc(OC4CCN(C)C4=O)cc(C(=O)Nc4ncccc4O)c3)cc2)o1 (stereo not shown) :: 179

Measured activity at 1 µM of Cc1nnc(-c2ccc(Oc3cc(OC4CCN(C)C4=O)cc(C(=O)Nc4ncc(C)s4)c3)cc2)o1 (stereo not shown) : 227

----------
target: glucokinase (GK) enzyme (Homo sapiens, UniProt P35557); test: In-vitro glucokinase (GK) activation assay (coupled with glucose-6-phosphate dehydrogenase, absorbance at 340); type: biochemical; conditions: 0.1 uM compound; glucose 2.5 mM; read-out: % of GK activity wrt DMSO
Here, each record is paired with measured activity at 0.1 µM data.
Note: unit % is implicit; provide only the numeric part.

Check out these entries, answers already filled in.
1) Cc1csc(NC(=O)c2cc(Oc3ccc(-c4nnc(C5CC5)o4)cc3)cc(OC3CCN(C)C3=O)c2)n1 (stereo not shown) :: 201
2) CN1CCC(Oc2cc(Oc3ccc(-c4nnc(C5CC5)o4)cc3)cc(C(=O)Nc3nccs3)c2)C1=O (stereo not shown) :: 187

Measured activity at 0.1 µM of Cc1nnc(-c2ccc(Oc3cc(OC4CCN(C)C4=O)cc(C(=O)Nc4cnccn4)c3)cc2)o1 (stereo not shown) : 168

Measured activity at 0.1 µM of CN1CCC(Oc2cc(Oc3ccc(-c4nnc(-c5ccccc5)o4)cc3)cc(C(=O)Nc3nccs3)c2)C1=O (stereo not shown) : 182

----------
Here, each record is paired with measured activity at 5 µM data.
target: glucokinase (GK) enzyme (Homo sapiens, UniProt P35557); assay: In-vitro glucokinase (GK) activation assay (coupled with glucose-6-phosphate dehydrogenase, absorbance at 340); type: biochemical; conditions: 5 uM compound; glucose 2.5 mM; read-out: % of GK activity wrt DMSO
Note: unit % is implicit; provide only the numeric part.

Check out these entries, answers already filled in.
1) Cc1nnc(-c2ccc(Oc3cc(OC4CCN(C)C4=O)cc(C(=O)Nc4nc(CC(=O)O)cs4)c3)cc2)o1 (centres unmarked) :: 330
2) CCOC(=O)c1csc(NC(=O)c2cc(Oc3ccc(-c4nnc(C)o4)cc3)cc(OC3CCN(C)C3=O)c2)n1 (centres unmarked) :: 339
3) Cc1csc(NC(=O)c2cc(Oc3ccc(-c4noc(C)n4)cc3)cc(OC3CCN(C)C3=O)c2)n1 (centres unmarked) :: 347

Measured activity at 5 µM of CCN1CCC(Oc2cc(Oc3ccc(-c4nnc(C)o4)cc3)cc(C(=O)Nc3nccs3)c2)C1=O (centres unmarked) : 382

Measured activity at 5 µM of Cc1nnc(-c2ccc(Oc3cc(OC4CCN(C(C)C)C4=O)cc(C(=O)Nc4ncc(C)s4)c3)cc2)o1 (centres unmarked) : 192

Measured activity at 5 µM of Cc1nnc(-c2ccc(Oc3cc(OC4CCN(C)C4=O)cc(C(=O)n4c(N)nc5ccccc54)c3)cc2)o1 (centres unmarked) : 130

Measured activity at 5 µM of Cc1csc(NC(=O)c2cc(Oc3ccc(-c4nnc(C)o4)cc3)cc(OC3CCN(C)C3=O)c2)n1 (centres unmarked) : 320

Measured activity at 5 µM of Cc1cc(NC(=O)c2cc(Oc3ccc(-c4nnc(C)o4)cc3)cc(OC3CCN(C)C3=O)c2)n[nH]1 (centres unmarked) : 173

----------
target: glucokinase (GK) enzyme (Homo sapiens); assay: In-vitro glucokinase (GK) activation assay (coupled with glucose-6-phosphate dehydrogenase, absorbance at 340); assay type: biochemical; conditions: 10 uM compound; glucose 2.5 mM; read-out: % of GK activity wrt DMSO
Here, each record is paired with measured activity at 10 µM data.

Check out these entries, answers already filled in.
1. CC(C)Cc1nnc(-c2ccc(Oc3cc(OC4CCN(C)C4=O)cc(C(=O)Nc4nccs4)c3)cc2)o1 (stereo not drawn) :: 338%
2. Cc1nnc(-c2ccc(Oc3cc(OC4CCN(C)C4=O)cc(C(=O)Nc4nc(-c5ccccc5)cs4)c3)cc2)o1 (stereo not drawn) :: 329%
3. CN1CCC(Oc2cc(Oc3ccc(-c4nnc(-c5ccccc5)o4)cc3)cc(C(=O)Nc3nccs3)c2)C1=O (stereo not drawn) :: 337%
4. Cc1nnc(-c2ccc(Oc3cc(OC4CCN(C)C4=O)cc(C(=O)n4c(N)nc5ccccc54)c3)cc2)o1 (stereo not drawn) :: 148%
5. Cc1nnc(-c2ccc(Oc3cc(OC4CCN(C)C4=O)cc(C(=O)Nc4ncc(C)s4)c3)cc2)o1 (stereo not drawn) :: 236%

Record Cc1nnc(-c2ccc(Oc3cc(OC4CCN(C)C4=O)cc(C(=O)Nc4nnc(C5CC5)s4)c3)cc2)o1 (stereo not drawn) has glucokinase (GK) enzyme (Homo sapiens) activity at 10 µM equal to 235%

Record Cc1nc(-c2ccc(Oc3cc(OC4CCN(C)C4=O)cc(C(=O)Nc4nccs4)c3)cc2)no1 (stereo not drawn) has glucokinase (GK) enzyme (Homo sapiens) activity at 10 µM equal to 347%

Record Cc1cc(NC(=O)c2cc(Oc3ccc(-c4nnc(C)o4)cc3)cc(OC3CCN(C)C3=O)c2)n[nH]1 (stereo not drawn) has glucokinase (GK) enzyme (Homo sapiens) activity at 10 µM equal to 189%
